System: ATP;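 note: ATP exposure 15 min at 22 °C before imaging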
experimental details: switch fluorescence ratio, 500 uM ATP over buffer (Cy3 cluster intensity, sum of 5 cycles each) (fold (ratio)); higher = stronger signal-on switching upon ATP binding; sequences stand for … in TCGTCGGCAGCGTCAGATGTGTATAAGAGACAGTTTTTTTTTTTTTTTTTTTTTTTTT…TC
condition context: aptamer strand: ATP DNA aptamer (quencher-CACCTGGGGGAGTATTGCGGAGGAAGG + anchor), 100 nM annealed; ATP concentration: 500 uM
measurement label: switch fluorescence ratio
# respond with the number and nothing more

# example entries with known answers
item sequence	experimental target	switch fluorescence ratio
GTGTCAATTT	ATP	1.13
CAAGGTTATG	ATP	0.974
GGGATGTGCT	ATP	0.957
CGAGGTTGGG	ATP	1
ATTCGGTTAT	ATP	1.01
TTTTCGGCCC	ATP	1.01
CGTTTGGTCT	ATP	1
CAAATGGGAT	ATP	0.995
ACGGTTGTGG	ATP	1.01
CCTATTACGA	ATP	1.04

Proceed to the following item.
Data request: Which measured switch fluorescence ratio value corresponds to ATCGCTTAGG ?
Data returned: 1

----------
Tested on: ATP;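 note: ATP exposure 15 min at 22 °C before imaging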
experimental details: switch fluorescence ratio, 500 uM ATP over buffer (Cy3 cluster intensity, sum of 5 cycles each) (fold (ratio)); higher = stronger signal-on switching upon ATP binding; sequences stand for … in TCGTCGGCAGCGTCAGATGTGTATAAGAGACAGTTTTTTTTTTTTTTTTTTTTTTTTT…TC
condition context: aptamer strand: ATP DNA aptamer (quencher-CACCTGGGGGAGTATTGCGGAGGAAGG + anchor), 100 nM annealed; ATP concentration: 500 uM
Reported values of switch fluorescence ratio for individual entries
# respond with the number and nothing more

# example entries with known answers
item sequence	experimental target	switch fluorescence ratio
ATAAAATTTA	ATP	1.04
AGAACCGTGT	ATP	0.989
ACAATCTAAA	ATP	1.03
GAAGGATATT	ATP	1.02
TGAATGTTGG	ATP	0.988

Proceed to the following item.
Data request: Which measured switch fluorescence ratio value corresponds to CAGTTCTGTA ?
Data returned: 1.01

----------
Tested on: ATP;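 note: ATP exposure 15 min at 22 °C before imaging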
experimental details: switch fluorescence ratio, 500 uM ATP over buffer (Cy3 cluster intensity, sum of 5 cycles each) (fold (ratio)); higher = stronger signal-on switching upon ATP binding; sequences stand for … in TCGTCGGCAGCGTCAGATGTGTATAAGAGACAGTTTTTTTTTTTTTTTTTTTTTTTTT…TC
condition context: aptamer strand: ATP DNA aptamer (quencher-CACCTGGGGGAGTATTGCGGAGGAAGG + anchor), 100 nM annealed; ATP concentration: 500 uM
Reported values of switch fluorescence ratio for individual entries
# respond with the number and nothing more

# example entries with known answers
item sequence	switch fluorescence ratio
AGGACTGAAG	0.989
GAAGGGCGGC	1.01
AGGGGTGTTT	0.999
TTAAGCTCGC	0.986

Data request: Under ATP: switch fluorescence ratio value of TCTTGTACGT ?
Data returned: 1.01

----------
Test system: ATP;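 note: ATP exposure 15 min at 22 °C before imaging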
experimental details: switch fluorescence ratio, 500 uM ATP over buffer (Cy3 cluster intensity, sum of 5 cycles each) (fold (ratio)); higher = stronger signal-on switching upon ATP binding; sequences stand for … in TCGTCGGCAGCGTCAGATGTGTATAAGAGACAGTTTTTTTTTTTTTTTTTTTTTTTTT…TC
condition context: aptamer strand: ATP DNA aptamer (quencher-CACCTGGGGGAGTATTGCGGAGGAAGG + anchor), 100 nM annealed; ATP concentration: 500 uM
Reported values of switch fluorescence ratio for individual entries
# respond with the number and nothing more

# example entries with known answers
item sequence	measurement label	test result
CGCAGAAACG	switch fluorescence ratio	1
GTTGGGGTGC	switch fluorescence ratio	1.01
ACTGTCTAAT	switch fluorescence ratio	1.01

Data request: Which measured switch fluorescence ratio value corresponds to AGCTTATGGT ?
Data returned: 0.962

Data request: Which measured switch fluorescence ratio value corresponds to GAAGTTGGGA ?
Data returned: 0.986

Data request: Which measured switch fluorescence ratio value corresponds to TCAGTTTAGC ?
Data returned: 1.01
